settings: in isopropanol, 290.65 K
measurement.label: solubility (mole fraction)
Respond using a number only.

If you can, please state the reported solubility (mole fraction) value of `Cn1cnc([N+](=O)[O-])c1Cl` .
0.00158

---

conditions: in toluene, 288.15 K
measurement.label: solubility (mole fraction)

Using the record for `Cn1cnc([N+](=O)[O-])c1Cl` , report its solubility (mole fraction).
0.00228

---

conditions: in 2-butanone, 283.15 K
measurement.label: solubility (mole fraction)
Answer with a number only.

Given `Cn1cnc([N+](=O)[O-])c1Cl` , state its recorded solubility (mole fraction).
0.0145

---

conditions: in ethyl acetate, 288.15 K
measurement.label: solubility (mole fraction)
Lab note: jot down the number only; don't add units.

Entry `Cn1cnc([N+](=O)[O-])c1Cl` : reported solubility (mole fraction) = ?
0.00983

---

conditions: in ethanol, 310.65 K
measurement.label: solubility (mole fraction)
Please reply with the number alone, leaving off any unit.

What value of solubility (mole fraction) has been reported for the following molecule? `Cn1cnc([N+](=O)[O-])c1Cl`
0.00587

---

details: in ethanol, 313.15 K
measurement.label: solubility (mole fraction)
In your answer, state the number alone without any accompanying words.

Recorded solubility (mole fraction) of `Cn1cnc([N+](=O)[O-])c1Cl` , please.
0.00643

---

conditions: in ethanol, 295.65 K
measurement.label: solubility (mole fraction)
No unit in the answer, only the number.

Returns the measured solubility (mole fraction) for the input compound. Input: `Cn1cnc([N+](=O)[O-])c1Cl`
0.00347

---

conditions: in isopropanol, 298.15 K
measurement.label: solubility (mole fraction)
Please respond with just the number, no unit label.

Given the molecule `Cn1cnc([N+](=O)[O-])c1Cl` , what is its reported solubility (mole fraction)?
0.00219

---

settings: in toluene, 290.65 K
measurement.label: solubility (mole fraction)
Give the figure only, with no unit attached.

Requested read-out: solubility (mole fraction). Entry: `Cn1cnc([N+](=O)[O-])c1Cl`
0.00248

---

details: in toluene, 313.15 K
measurement.label: solubility (mole fraction)
Give the value as a plain number.

Can you share its solubility (mole fraction)? I mean this molecule: `Cn1cnc([N+](=O)[O-])c1Cl`
0.00568

---

settings: in NMP, 308.15 K
measurement.label: solubility (mole fraction)
Answer using only a numeral; do not append any unit.

Requested read-out: solubility (mole fraction). Entry: `Cn1cnc([N+](=O)[O-])c1Cl`
0.224

---

settings: in chloroform, 293.15 K
measurement.label: solubility (mole fraction)

Item under review: `Cn1cnc([N+](=O)[O-])c1Cl` . Reported solubility (mole fraction)?
0.0185

---

details: in isopropanol, 293.15 K
measurement.label: solubility (mole fraction)
Reply with just the number.

Report solubility (mole fraction) for `Cn1cnc([N+](=O)[O-])c1Cl` please.
0.00176

---

conditions: in 1,4-dioxane, 305.65 K
measurement.label: solubility (mole fraction)
No unit in the answer, please; the number alone is enough.

I would be grateful if you could share the reported solubility (mole fraction) for `Cn1cnc([N+](=O)[O-])c1Cl` .
0.0161

---

conditions: in methanol, 288.15 K
measurement.label: solubility (mole fraction)
Just the number.

Field request: solubility (mole fraction) | item: `Cn1cnc([N+](=O)[O-])c1Cl`
0.00349

---

details: in ethyl acetate, 293.15 K
measurement.label: solubility (mole fraction)

Entry `Cn1cnc([N+](=O)[O-])c1Cl` has what solubility (mole fraction)?
0.0118

---

details: in NMP, 310.65 K
measurement.label: solubility (mole fraction)
Note: the reply should be a number with no unit written.

Form field: reported solubility (mole fraction) of `Cn1cnc([N+](=O)[O-])c1Cl`
0.233

---

conditions: in 1,4-dioxane, 310.65 K
measurement.label: solubility (mole fraction)
Number, no unit, nothing else.

Entry `Cn1cnc([N+](=O)[O-])c1Cl` : reported solubility (mole fraction) = ?
0.0186

---

conditions: in acetone, 295.65 K
measurement.label: solubility (mole fraction)
// no unit, no text: just the number

What value of solubility (mole fraction) has been recorded for this entry: `Cn1cnc([N+](=O)[O-])c1Cl`
0.0299

---

conditions: in n-propanol, 308.15 K
measurement.label: solubility (mole fraction)
A bare number is all that is needed in reply.

# input molecule: `Cn1cnc([N+](=O)[O-])c1Cl` ; wanted: its solubility (mole fraction)
0.00418

---

conditions: in NMP, 290.65 K
measurement.label: solubility (mole fraction)
# answer = number (no unit)

Consider the molecule shown here: `Cn1cnc([N+](=O)[O-])c1Cl` What is its recorded solubility (mole fraction)?
0.174

---

conditions: in toluene, 295.65 K
measurement.label: solubility (mole fraction)
Would you mind answering with just the numeric figure?

Request the reported solubility (mole fraction) associated with `Cn1cnc([N+](=O)[O-])c1Cl`
0.00298

---

conditions: in acetone, 303.15 K
measurement.label: solubility (mole fraction)

Item under review: `Cn1cnc([N+](=O)[O-])c1Cl` . Reported solubility (mole fraction)?
0.0391

---

settings: in 1,4-dioxane, 300.65 K
measurement.label: solubility (mole fraction)
Quick one: just the number, no unit, thanks!

// returns reported solubility (mole fraction) for input `Cn1cnc([N+](=O)[O-])c1Cl`
0.014

---

conditions: in isopropanol, 305.65 K
measurement.label: solubility (mole fraction)

Query (molecule): `Cn1cnc([N+](=O)[O-])c1Cl` ; field requested: solubility (mole fraction)
0.00313

---

conditions: in toluene, 298.15 K
measurement.label: solubility (mole fraction)

Return reported solubility (mole fraction); argument: `Cn1cnc([N+](=O)[O-])c1Cl`
0.00325

---

conditions: in ethyl acetate, 298.15 K
measurement.label: solubility (mole fraction)
Please reply with the number alone, leaving off any unit.

# query: solubility (mole fraction) of entry `Cn1cnc([N+](=O)[O-])c1Cl`
0.0139

---

details: in chloroform, 305.65 K
measurement.label: solubility (mole fraction)
Output: the number by itself.

Form field: reported solubility (mole fraction) of `Cn1cnc([N+](=O)[O-])c1Cl`
0.0276

---

conditions: in 1,4-dioxane, 298.15 K
measurement.label: solubility (mole fraction)
Give the value as a plain number.

Give its solubility (mole fraction) value. Item: `Cn1cnc([N+](=O)[O-])c1Cl`
0.0129

---

conditions: in NMP, 283.15 K
measurement.label: solubility (mole fraction)
The answer should be a number; do not append a unit.

So what's the measured solubility (mole fraction) for this one? `Cn1cnc([N+](=O)[O-])c1Cl`
0.157

---

settings: in methanol, 298.15 K
measurement.label: solubility (mole fraction)
Response field accepts a number only; no unit should be typed.

Recorded solubility (mole fraction) of `Cn1cnc([N+](=O)[O-])c1Cl` , please.
0.00506

---

conditions: in methanol, 308.15 K
measurement.label: solubility (mole fraction)
// response body must contain only the number

Form field: reported solubility (mole fraction) of `Cn1cnc([N+](=O)[O-])c1Cl`
0.00699

---

details: in chloroform, 300.65 K
measurement.label: solubility (mole fraction)

Would you kindly share the measured solubility (mole fraction) for `Cn1cnc([N+](=O)[O-])c1Cl` ?
0.0236

---

conditions: in 2-butanone, 310.65 K
measurement.label: solubility (mole fraction)
Reply with just the number.

Entry under review: `Cn1cnc([N+](=O)[O-])c1Cl` . Reported solubility (mole fraction)?
0.04

---

conditions: in NMP, 313.15 K
measurement.label: solubility (mole fraction)
// return just the number, without any unit appended

I'd like to know its solubility (mole fraction). The molecule in question is `Cn1cnc([N+](=O)[O-])c1Cl`
0.242

---

conditions: in toluene, 318.15 K
measurement.label: solubility (mole fraction)

Quick one: solubility (mole fraction) of `Cn1cnc([N+](=O)[O-])c1Cl` ?
0.00683

---

settings: in ethanol, 293.15 K
measurement.label: solubility (mole fraction)
Response field accepts a number only; no unit should be typed.

Please give the measured solubility (mole fraction) for this compound: `Cn1cnc([N+](=O)[O-])c1Cl`
0.00313

---

settings: in n-propanol, 295.65 K
measurement.label: solubility (mole fraction)
Answer field: number only, no words.

Recorded solubility (mole fraction) for `Cn1cnc([N+](=O)[O-])c1Cl` , please?
0.00258

---

details: in isopropanol, 303.15 K
measurement.label: solubility (mole fraction)
When you answer, write just the number.

Entry `Cn1cnc([N+](=O)[O-])c1Cl` : reported solubility (mole fraction) = ?
0.00278

---

conditions: in methanol, 283.15 K
measurement.label: solubility (mole fraction)
Write the value as a bare number.

Need solubility (mole fraction), item `Cn1cnc([N+](=O)[O-])c1Cl`
0.0028

Sourced from BigSolDB 2.1
